I'd appreciate it if you could supply MRS IC50 values for the items below.
test system: MRSA; test: Antibacterial susceptibility testing, MRSA; type: cell-based, methicillin resistant Staphylococcus aureus; details: Table 1
Answers are plain numbers, in µg/mL.

Here is how some compounds turned out for MRS IC50.
# COMPOUND, MRS IC50 (µg/mL)
rows = [
    ("[I-].[O-][S+](c1cc(C(F)(F)F)cc(C(F)(F)F)c1)c1cc2ccccc2[n+](CCCCCc2ccccc2)c1 (centres unmarked)", 0.20),
    ("COc1cccc(Sc2cc3ccccc3[n+](CCCCCc3ccccc3)c2)c1.[I-]", 0.70),
    ("[I-].c1ccc(CCCCC[n+]2cc(Oc3ccccc3)cc3ccccc32)cc1", 15),
]

I have 3 compounds here; please give me MRS IC50 for each one.
1. Clc1ccccc1Sc1cc2ccccc2[n+](CCCCCc2ccccc2)c1.[I-]
2. [I-].[O-][S+](c1ccc(C(F)(F)F)cc1)c1cc2ccccc2[n+](CCCCCc2ccccc2)c1 (centres unmarked)
3. [I-].[O-][S+](c1ccc(F)cc1)c1cc2ccccc2[n+](CCCCCc2ccccc2)c1 (centres unmarked)

Output line:
1. 1.0
2. 0.50
3. 0.80

* * *

system: Candida albicans ATTC 90028; assay: Antifungal susceptibility testing, Candida albicans; format: cell-based; settings: Table 3
RECORDED_METRIC: Ca IC50 (µg/mL)
Numbers only, in µg/mL.

Input line: For the record C[C@@H]1[C@H](O)[C@@H](C)/C=C/C=C/C=C/C=C/C=C/C=C/C=C/[C@H](O[C@@H]2O[C@H](C)[C@@H](O)[C@H](N)[C@@H]2O)C[C@@H]2O[C@](O)(C[C@@H](O)C[C@@H](O)[C@H](O)CC[C@@H](O)C[C@@H](O)CC(=O)O[C@H]1C)C[C@H](O)[C@H]2C(=O)O [Amph B, Amphotericin B, reference compound] , what value of Ca IC50 is listed for Candida albicans ATTC 90028?
Output line: 0.25

* * *

Test system: MRSA
Test: Antibacterial susceptibility testing, MRSA
Format: cell-based, methicillin resistant Staphylococcus aureus
Details: Table 2
Procedure: Using standard susceptibility tests, the compounds of the invention were determined to be active against MRSA, C. neoformans and several other bacteria, fungi and protozoa. […] After adding microbial cultures to the sampled afforded a final volume of 200 μL and final test concentration starting with 20 μg/mL, plates were read prior to and after final incubation using either fluorescence at 544ex/590em (M intracellulare, A. fumigatus) using the Polarstar galaxy reader (Biotek Instruments, Vermont). […]
I'd appreciate it if you could supply MRSA IC50 values for the items below.
Numbers only, in µg/mL.

# STRUCTURE_NOTATION, TARGET_ENTITY, UNITS_LABEL, MRSA IC50
measured = [
    ("Clc1ccc(Nc2cc3ccccc3[n+](CCCCCC3CCCCC3)c2)cc1.[I-]", "MRSA", "µg/mL", 0.50),
    ("C[n+]1cc(N(CCCCCC2CCCCC2)c2ccc(C(F)(F)F)cc2)cc2ccccc21.[I-]", "MRSA", "µg/mL", 0.40),
    ("Clc1cccc(Nc2cc3ccccc3[n+](CCCCCC3CCCCC3)c2)c1.[I-]", "MRSA", "µg/mL", 0.55),
]

API: the following record is the query input.
Input line: For the record C[n+]1cc(N(CCCCCC2CCCCC2)c2cccc(Cl)c2)cc2ccccc21.[I-] , what value of MRSA IC50 is listed for MRSA?
Output line: 0.80

* * *

tested on: Candida albicans ATTC 90028; test: Antifungal susceptibility testing, Candida albicans; assay type: cell-based; details: Table 1
RECORDED_METRIC: Ca MIC

# COMPOUND, TARGET_ENTITY, Ca MIC
rows = [
    ("Brc1ccc(Sc2cc3ccccc3[n+](CCCCCc3ccccc3)c2)cc1.[I-]", "Candida albicans ATTC 90028", "— ((-) = >20 μg/mL)"),
    ("[I-].c1ccc(CCCCC[n+]2cc(Oc3ccccc3)cc3ccccc32)cc1", "Candida albicans ATTC 90028", "— ((-) = >20 μg/mL)"),
    ("[I-].c1ccc(CCCCC[n+]2cc(Sc3ccccc3)cc3ccccc32)cc1", "Candida albicans ATTC 90028", "10 µg/mL"),
    ("[I-].[O-][S+](c1ccc(Br)cc1)c1cc2ccccc2[n+](CCCCCc2ccccc2)c1 (stereo not shown)", "Candida albicans ATTC 90028", "— ((-) = >20 μg/mL)"),
    ("C[n+]1cc(Sc2ccc(F)cc2)cc2ccccc21.[I-]", "Candida albicans ATTC 90028", "— ((-) = >20 μg/mL)"),
]

I have 5 compounds here; please give me Ca MIC for each one.
1. [I-].[O-][S+](c1ccccc1)c1cc2ccccc2[n+](CCCCCc2ccccc2)c1 (stereo not shown)
2. COc1ccc(Sc2cc3ccccc3[n+](C)c2)cc1.[I-]
3. Fc1ccc(Sc2cc3ccccc3[n+](CCCCCc3ccccc3)c2)cc1.[I-]
4. [I-].[O-][S+](c1cc2ccccc2[n+](CCCCCc2ccccc2)c1)c1ccccc1F (stereo not shown)
5. O=C(c1ccc(Cl)cc1)c1cc2ccccc2[n+](CCCCCc2ccccc2)c1.[I-]

Output line:
1: — ((-) = >20 μg/mL); 2: — ((-) = >20 μg/mL); 3: — ((-) = >20 μg/mL); 4: — ((-) = >20 μg/mL); 5: 10 µg/mL

* * *

system: Cryptococcus neoformans ATCC 90113; experiment: Antifungal susceptibility testing, Cryptococcus neoformans; format: cell-based; details: Table 1
RECORDED_METRIC: Cn MFC

# COMPOUND, TARGET_ENTITY, REPORTED_MEASUREMENT
records = [
    ("[I-].[O-][S+](c1cc2ccccc2[n+](CCCCCc2ccccc2)c1)c1ccccc1Br (stereo not drawn)", "Cryptococcus neoformans ATCC 90113", "— ((-) = >20 μg/mL)"),
    ("[I-].c1ccc(CCCCC[n+]2cc(Oc3ccccc3)cc3ccccc32)cc1", "Cryptococcus neoformans ATCC 90113", "— ((-) = >20 μg/mL)"),
    ("COc1ccc([S+]([O-])c2cc3ccccc3[n+](CCCCCc3ccccc3)c2)cc1.[I-] (stereo not drawn)", "Cryptococcus neoformans ATCC 90113", "— ((-) = >20 μg/mL)"),
]

* * *

I'd appreciate it if you could supply Cn MFC values for the items below.
System: Cryptococcus neoformans ATCC 90113
Test: Antifungal susceptibility testing, Cryptococcus neoformans
Type: cell-based
Details: Table 1
Experimental: Using standard susceptibility tests, the compounds of the invention were determined to be active against MRSA, C. neoformans and several other bacteria, fungi and protozoa. […] After adding microbial cultures to the sampled afforded a final volume of 200 μL and final test concentration starting with 20 μg/mL, plates were read prior to and after final incubation using either fluorescence at 544ex/590em (M intracellulare, A. fumigatus) using the Polarstar galaxy reader (Biotek Instruments, Vermont). […]
Numbers only, in µg/mL.

# STRUCTURE_NOTATION, RECORDED_METRIC, REPORTED_MEASUREMENT
data = [
    ("FC(F)(F)c1cccc(Sc2cc3ccccc3[n+](CCCCCc3ccccc3)c2)c1.[I-]", "Cn MFC", 20),
    ("Fc1cccc(Sc2cc3ccccc3[n+](CCCCCc3ccccc3)c2)c1.[I-]", "Cn MFC", 2.5),
]

Input line: Please look up its Cn MFC: Brc1ccc(Sc2cc3ccccc3[n+](CCCCCc3ccccc3)c2)cc1.[I-]
Output line: 10

* * *

system: Aspergillus fumigatus ATCC 90906; assay: Antifungal susceptibility testing, Aspergillus fumigatus; format: cell-based; settings: Table 1; Aspergillus fumigatus

# COMPOUND, A fu MIC
data = [
    ("COc1cccc([S+]([O-])c2cc3ccccc3[n+](CCCCCc3ccccc3)c2)c1.[I-] (stereo not drawn)", "— ((-) = >20 μg/mL)"),
    ("[I-].[O-][S+](c1ccccc1)c1cc2ccccc2[n+](CCCCCc2ccccc2)c1 (stereo not drawn)", "— ((-) = >20 μg/mL)"),
    ("[I-].[O-][S+](c1cc2ccccc2[n+](CCCCCc2ccccc2)c1)c1ccccc1Br (stereo not drawn)", "— ((-) = >20 μg/mL)"),
]

* * *

Test system: MRSA
Experiment: Antibacterial susceptibility testing, MRSA
Assay type: cell-based, methicillin resistant Staphylococcus aureus
Conditions: Table 1
Protocol: Using standard susceptibility tests, the compounds of the invention were determined to be active against MRSA, C. neoformans and several other bacteria, fungi and protozoa. […] After adding microbial cultures to the sampled afforded a final volume of 200 μL and final test concentration starting with 20 μg/mL, plates were read prior to and after final incubation using either fluorescence at 544ex/590em (M intracellulare, A. fumigatus) using the Polarstar galaxy reader (Biotek Instruments, Vermont). […]
Tick condition met if MRS IC50 is 0.8 µg/mL or greater. Tick condition not met if MRS IC50 is less than 0.8 µg/mL.

Consider the following illustrative entries.
# MOLECULE, LABEL
rows = [
    ("Fc1cccc(Sc2cc3ccccc3[n+](CCCCCc3ccccc3)c2)c1.[I-] [XYZ-IV-21]", "condition not met"),
    ("Fc1ccccc1Sc1cc2ccccc2[n+](CCCCCc2ccccc2)c1.[I-] [XYZ-IV-19]", "condition not met"),
    ("FC(F)(F)c1cccc(Sc2cc3ccccc3[n+](CCCCCc3ccccc3)c2)c1.[I-] [XYZ-IV-54]", "condition met"),
    ("Brc1ccc(Sc2cc3ccccc3[n+](CCCCCc3ccccc3)c2)cc1.[I-] [XYZ-III-89]", "condition met"),
    ("Brc1cccc(Sc2cc3ccccc3[n+](CCCCCc3ccccc3)c2)c1.[I-] [XYZ-III-87]", "condition met"),
]

Shifting focus to the molecule that follows.
Input line: Can Brc1ccccc1Sc1cc2ccccc2[n+](CCCCCc2ccccc2)c1.[I-] [XYZ-III-85] be said to have MRS IC50 at or above 0.8 µg/mL?
Output line: condition met
